# melting point annotations

Check out these entries, answers already filled in.
>>> print(df.to_string())
                                   compound            val
0  CC(=O)OC(C)c1nccc2[nH]c(=O)ccc12 (stereo not drawn)  185 to 187 °C
1   CS(=O)(=O)c1ccc(C(=O)Cl)c(Cl)c1-c1nccs1    97 to 98 °C
2  O=C1c2cc(O)ccc2OCC1Cc1ccncc1 (stereo not drawn)  188 to 190 °C

Request: For the compound "CCOC(=O)Nc1c(C(=O)O)oc2cc(OCc3ccccc3)ccc12" , give its measured melting point value.
Result: 198 °C

Request: For the compound "N#CCCc1c(SC(F)(F)F)c(C#N)c(Cl)n1-c1c(Cl)cc(C(F)(F)F)cc1Cl" , give its measured melting point value.
Result: 150 °C

Request: For the compound "Cc1cc(Cc2cc(C)c(N)c(C)c2)cc(C)c1N" , give its measured melting point value.
Result: 119 to 120 °C

###

# melting point annotations

>>> df
                                   molecule            val
0  COc1ccc2c(c1)c(-c1cc3c(C(=O)N4CCOCC4)ccnc3[nH]1)cn2C  259 to 260 °C
1  CC(C)(O)C1Cc2cc3ccc(=O)oc3cc2O1 (stereo unspecified)  186 to 187 °C
2   O=S1(=O)N=C(NCCCCc2ccccc2)Nc2cc(Cl)sc21  201 to 205 °C
3     Nc1cc(=O)n(CC2CCCCC2)c(=S)n1CC1CCCCC1  147 to 150 °C
4  CCCCN1C(C)=C(C(=O)OCC)C(c2cc([N+](=O)[O-])ccc2OCC(=O)OCC)C(C(=O)OCC)=C1C    88 to 90 °C

Request: For the molecule "COc1ccc2c(c1)C=Cn1c(nnc1OC)C2" , give its measured melting point value.
Result: 185 to 186 °C

###

# melting point annotations

In [3]: df
Out[3]:
                                   molecule            val
0  Cc1[nH]nc(Oc2ccc(C(F)(F)F)cc2[N+](=O)[O-])c1C    92 to 95 °C
1  COc1cc(C)nc(NC(=O)NS(=O)(=O)c2cccc3c2OC(C)(C)O3)n1  180 to 183 °C
2  COC(=O)c1cc(CCl)ccc1OCc1nc(-c2ccco2)oc1C  107 to 108 °C
3  CC(C)(C)c1cc(N2C=NC(NC(=N)N)S2)cc(C(C)(C)C)c1O (centres undefined)         276 °C

Request: For the molecule CSc1nccn1CC(=O)NC1C(=O)N2C(C(=O)O)=C(COC(C)=O)CSC12 (centres undefined) , give its measured melting point value.
Result: 245 to 247 °C

Request: For the molecule CN(C)CCCN(C)C(=O)C(Cc1ccccc1)NC(=O)c1cc2cc(Cl)ccc2[nH]1 (centres undefined) , give its measured melting point value.
Result: 187 to 190 °C

Request: For the molecule "CCOc1c(C(N)=O)cnc2c(NC(=O)c3c(Cl)cccc3Cl)cccc12" , give its measured melting point value.
Result: 242 to 245 °C

Request: For the molecule "C#CCCCn1ncc2c(N)c(C(=O)OCC=C)c(C)nc21" , give its measured melting point value.
Result: 99.5 °C

Request: For the molecule CCCN1CCC23c4cccc(O)c4OC2C2CCC3(C1)C(CSC)C2 (centres undefined) , give its measured melting point value.
Result: 152 to 153 °C

Request: For the molecule O=S(=O)(C1CC1)C(F)(F)C(O)(Cn1cncn1)c1ccc(F)cc1F (centres undefined) , give its measured melting point value.
Result: 130 to 132 °C

Request: For the molecule "COC(=O)c1cccc(-c2ccnc3c(C(=O)c4cccs4)cnn23)c1" , give its measured melting point value.
Result: 180 to 184 °C

Request: For the molecule NC(CSCc1ccccc1C(=O)O)C(=O)O (centres undefined) , give its measured melting point value.
Result: 252 to 254 °C

Request: For the molecule "O=C(O)c1nc(Oc2cccc(C(F)(F)F)c2)ccc1Cl" , give its measured melting point value.
Result: 90 to 92 °C

Request: For the molecule COC(=O)CC(c1ccc(OC)c(OC)c1)N1C(=O)C2CCCCC2C1=O (centres undefined) , give its measured melting point value.
Result: 92.5 to 95 °C

###

# melting point annotations

Check out these entries, answers already filled in.
>>> df
                                   molecule       endpoint            val
0  O=C1OC(=O)c2c(Br)c(Sc3ccccc3)c(Sc3ccccc3)c(Br)c21  melting point  183 to 184 °C
1  COC(=O)CCCc1cc2nc(Cl)ccc2n1S(=O)(=O)c1cccc(C(F)(F)F)c1  melting point          97 °C

Request: For the molecule COc1ccc(C)cc1NC(=O)Nc1ccc(C2=CCN(C(=O)Nc3ccc(OCC(O)CO)cc3Cl)CC2)cc1 (stereo unspecified) , give its measured melting point value.
Result: 125 to 128 °C

Request: For the molecule "CC(=O)Oc1ccccc1C=C1CCCc2cc(C)cnc21" , give its measured melting point value.
Result: 85 to 87 °C

Request: For the molecule "O=C1NCC=NN1c1cc(C(F)(F)F)cc(Cl)n1" , give its measured melting point value.
Result: 197 to 198 °C

Request: For the molecule "CC(C)(C)OC(=O)CN1CCC2(CCNCC2)OC1=O" , give its measured melting point value.
Result: 110 to 115 °C

###

ENDPOINT: melting point

Request: For the molecule CC12CCC3c4cccc([N+](=O)[O-])c4CCC3C1CCC2O (configuration not stated) , give its measured melting point value.
Result: 151 to 152 °C

Request: For the molecule "CCCn1cc(C(=O)NCc2ccc(Cl)cc2)c(=O)c2cc(CCl)oc21" , give its measured melting point value.
Result: 160 to 162 °C

Request: For the molecule "COc1ccc(-c2sc3c(c2OC(C)=O)CCCC3)cc1" , give its measured melting point value.
Result: 81 °C

###

ENDPOINT: melting point

Check out these entries, answers already filled in.
                                   compound       endpoint            val
0                      COc1ccc(F)c(F)c1C=NO  melting point  199 to 201 °C
1             Cn1nnnc1NCCSCc1csc(NC(=N)N)n1  melting point    80 to 83 °C
2           COc1ccccc1NS(=O)(=O)c1ccc(C)cc1  melting point  126 to 128 °C
3  O=C(c1cccs1)c1cccc2c1CCC2C(=O)O (centres undefined)  melting point  122 to 124 °C
4  CCCCCCCCCCCCOP(=O)(CC(=O)Nc1c(C(C)C)cccc1C(C)C)c1ccccc1 (centres undefined)  melting point    66 to 68 °C

Request: For the compound "CC(=O)Nc1ccc(F)cc1S(=O)(=O)CC#N" , give its measured melting point value.
Result: 154 to 157 °C

Request: For the compound "CCC(=O)CCC(=O)c1ccc(F)cc1" , give its measured melting point value.
Result: 56 to 57 °C

Request: For the compound "CCN1CCN(NC(=O)c2cc(Cl)c(N)cc2OC)CC1" , give its measured melting point value.
Result: 177 to 178 °C

Request: For the compound COc1cccc(OCC(O)c2cccc(OCc3ccc4ccccc4n3)c2)c1 (centres undefined) , give its measured melting point value.
Result: 103 to 105 °C

Request: For the compound CC1(C)CC(=O)C(C(=O)Nc2ccc(Cl)c(Cl)c2)C(=O)O1 (centres undefined) , give its measured melting point value.
Result: 212 to 215 °C

###

ENDPOINT: melting point

>>> print(df.to_string())
                                   molecule            val
0  CC(c1ccc(Br)cc1)N(O)C(N)=O (centres undefined)  138 to 140 °C
1  CC1(O)CC(=O)OC(CCc2ccc(OCc3ccc(F)cc3)cc2)C1Br (centres undefined)  160 to 163 °C
2  CC(C)c1ccc(N(Cc2cnn(Cc3ccc(Cl)s3)c2)C(=O)C2CCCc3c(O)cccc32)cn1 (centres undefined)   98 to 101 °C
3  CC1c2cccc3c2N(CC3)c2ccccc2N1C(=O)CBr (centres undefined)  123 to 125 °C
4                 NC(=O)c1ccc(N)c(C(N)=O)c1  177 to 198 °C
5                  Cc1[nH]c(=O)[nH]c1C(N)=O       > 300 °C
6      N#CCc1cc(Cl)cc2c(-c3ccc(Cl)cc3)onc12  187 to 190 °C
7  O=c1c(NCc2cccc(O)c2)c(Nc2ccc(O)c(-c3ccccn3)c2)c1=O  271 to 272 °C

Request: For the molecule "OC1CCN(c2ncc(-c3ccc(Cl)cc3)cn2)CC1" , give its measured melting point value.
Result: 168 to 170 °C

Request: For the molecule "CN1CCN(c2nc3sc4c(NCCN5CCOCC5)ncnc4c3c3c2CCC(C)(C)C3)CC1" , give its measured melting point value.
Result: 150 to 151 °C

Request: For the molecule NC(Cc1ccccc1)C(=O)CCC(=O)O (centres undefined) , give its measured melting point value.
Result: 138 to 139 °C

Request: For the molecule "Nc1cccc2c(=O)[nH]ncc12" , give its measured melting point value.
Result: 289 to 291 °C

Request: For the molecule "Cc1cccc2c3c(n(Cc4ccccc4)c12)CCCC3=O" , give its measured melting point value.
Result: 165 to 166 °C
